Below, each entry is listed with its recorded selectivity ratio.
# protocol.notes: Selectivity index, ratio of ED50 for human HT1080 cells to ED50 for chloroquine-sensitive Plasmodium falciparum D6
# Type: toxicity, cell-based, HT-1080
# condition.parameters: read-out: Ratio ED50
endpoint: selectivity ratio

>>> recorded_value("COc1ccc2cc1Oc1ccc(cc1)C[C@H]1c3c(cc(OC)c4c3Oc3cc5c(cc3O4)CCN(C)[C@@H]5C2)CCN1C")
23
>>> recorded_value("COc1ccc2cc1Oc1ccc(cc1)C[C@H]1c3cc(c(OC)cc3CCN1C)Oc1c(OC)c(OC)cc3c1[C@@H](C2)N(C)CC3")
67
>>> recorded_value("OC(c1cc(C(F)(F)F)nc2c(C(F)(F)F)cccc12)C1CCCCN1 (centres undefined)")
256
>>> recorded_value("COc1ccc2cc1Oc1ccc(cc1)C[C@H]1c3c(cc(OC)c(OC)c3Oc3cc4c(cc3OC)CCN[C@@H]4C2)CCN1C")
161

* * *

# protocol.notes: Cytotoxicity against human HT1080 cells after 3 days by sulforhodamine B assay
# Assay type: cell-based, HT-1080
# condition.parameters: read-out: ED50
Each entry below lists one item and its recorded CC50 at 72 h value.
endpoint: CC50 at 72 h

>>> recorded_value("COc1ccc2cc1Oc1ccc(cc1)C[C@H]1c3cc(c(OC)cc3CCN1C)Oc1c(OC)c(OC)cc3c1[C@@H](C2)N(C)CC3")
"11 µg/mL"
>>> recorded_value("COc1ccc2cc1Oc1ccc(cc1)C[C@H]1c3c(cc(OC)c(OC)c3Oc3cc4c(cc3OC)CCN(C)[C@@H]4C2)CCN1C")
"10.4 µg/mL"
>>> recorded_value("COc1ccc2cc1Oc1ccc(cc1)C[C@H]1c3c(cc(OC)c4c3Oc3cc5c(cc3O4)CCN=C5C2)CCN1C")
"2.1 µg/mL"
>>> recorded_value("COc1ccc2cc1Oc1ccc(cc1)C[C@H]1c3c(cc4c(c3Oc3cc5c(cc3OC)CCN[C@@H]5C2)OCO4)CCN1C")
"1.9 µg/mL"
>>> recorded_value("COc1ccc2cc1Oc1ccc(cc1)C[C@H]1c3c(cc4c(c3Oc3cc5c(cc3OC)CCN(C)[C@@H]5C2)OCO4)CCN1C")
"6.1 µg/mL"
>>> recorded_value("COc1ccc2cc1Oc1ccc(cc1)C[C@H]1c3c(cc(OC)c4c3Oc3cc5c(cc3O4)CCN(C)[C@@H]5C2)CCN1C")
"2.2 µg/mL"
>>> recorded_value("OC(c1cc(C(F)(F)F)nc2c(C(F)(F)F)cccc12)C1CCCCN1 (configuration not stated)")
"2.3 µg/mL"

* * *

# protocol.notes: Cytotoxicity against human LNCAP cells after 3 days by sulforhodamine B assay
# Format: cell-based
# condition.parameters: read-out: ED50
Listed below: CC50 at 72 h values for each entry.
endpoint: CC50 at 72 h (µg/mL)

>>> recorded_value("COc1ccc2cc1Oc1ccc(cc1)C[C@H]1c3c(cc(O)c(OC)c3Oc3cc4c(cc3OC)CCN(C)[C@@H]4C2)CCN1C")
8.3
>>> recorded_value("COc1ccc2cc1Oc1ccc(cc1)C[C@H]1c3c(cc(OC)c(O)c3Oc3cc4c(cc3OC)CCN[C@@H]4C2)CCN1C")
5.8
>>> recorded_value("COc1ccc2cc1Oc1ccc(cc1)C[C@H]1c3cc(c(OC)cc3CCN1C)Oc1c(OC)c(OC)cc3c1[C@@H](C2)N(C)CC3")
9.4
>>> recorded_value("COc1ccc2cc1Oc1ccc(cc1)C[C@H]1c3c(cc4c(c3Oc3cc5c(cc3OC)CCN[C@@H]5C2)OCO4)CCN1C")
3

* * *

# protocol.notes: Selectivity index, ratio of ED50 for human ZR-75-1 cells to ED50 for chloroquine-resistant Plasmodium falciparum W2
# Assay type: toxicity, cell-based
# condition.parameters: read-out: Ratio ED50
Categories are assigned from the measured selectivity ratio using these intervals: class A: < 7; class B: ≥ 7 and < 40; class C: ≥ 40

>>> discrete_label("C=C[C@H]1CN2CC[C@H]1C[C@H]2[C@H](O)c1ccnc2ccc(OC)cc12 [QUININE]")
"class C"
>>> discrete_label("COc1ccc2cc1Oc1ccc(cc1)C[C@H]1c3c(cc4c(c3Oc3cc5c(cc3OC)CCN(C)[C@@H]5C2)OCO4)CCN1C [CEPHARANTHINE]")
"class A"
>>> discrete_label("COc1ccc2cc1Oc1ccc(cc1)C[C@H]1c3c(cc(OC)c(OC)c3Oc3cc4c(cc3OC)CCN[C@@H]4C2)CCN1C")
"class B"
>>> discrete_label("COc1ccc2cc1Oc1ccc(cc1)C[C@H]1c3c(cc(O)c(OC)c3Oc3cc4c(cc3OC)CCN(C)[C@@H]4C2)CCN1C")
"class C"
>>> discrete_label("COc1ccc2cc1Oc1ccc(cc1)C[C@H]1c3cc(c(OC)cc3CCN1C)Oc1c(O)c(OC)cc3c1[C@@H](C2)N(C)CC3")
"class B"
>>> discrete_label("OC(c1cc(C(F)(F)F)nc2c(C(F)(F)F)cccc12)C1CCCCN1 (stereo not given) [MEFLOQUINE]")
"class C"
>>> discrete_label("COc1ccc2cc1Oc1ccc(cc1)C[C@H]1c3c(cc(OC)c(OC)c3Oc3cc4c(cc3OC)CCN(C)[C@@H]4C2)CCN1C [OBABERINE]")
"class B"
>>> discrete_label("COc1ccc2cc1Oc1ccc(cc1)C[C@H]1c3cc(c(OC)cc3CCN1C)Oc1c(OC)c(OC)cc3c1[C@@H](C2)N(C)CC3")
"class C"
>>> discrete_label("COc1ccc2cc1Oc1ccc(cc1)C[C@H]1c3c(cc(OC)c4c3Oc3cc5c(cc3O4)CCN(C)[C@@H]5C2)CCN1C")
"class A"
>>> discrete_label("COc1ccc2cc1Oc1ccc(cc1)C[C@H]1c3c(cc(OC)c(O)c3Oc3cc4c(cc3OC)CCN[C@@H]4C2)CCN1C")
"class B"
>>> discrete_label("COc1ccc2cc1Oc1ccc(cc1)C[C@H]1c3cc(c(OC)cc3CCN1C)Oc1c(O)c(OC)cc3c1[C@@H](C2)NCC3")
"class B"
>>> discrete_label("COc1ccc2cc1Oc1ccc(cc1)C[C@H]1c3c(cc(OC)c4c3Oc3cc5c(cc3O4)CCN=C5C2)CCN1C")
"class A"

* * *

CC50 at 48 h values by entry
# protocol.notes: Cytotoxicity against mouse P388 cells after 2 days by sulforhodamine B assay
# Assay type: cell-based
# condition.parameters: read-out: ED50
endpoint: CC50 at 48 h (µg/mL)

>>> recorded_value("COc1ccc2cc1Oc1ccc(cc1)C[C@H]1c3c(cc(OC)c(OC)c3Oc3cc4c(cc3OC)CCN(C)[C@@H]4C2)CCN1C")
4.1
>>> recorded_value("COc1ccc2cc1Oc1ccc(cc1)C[C@H]1c3cc(c(OC)cc3CCN1C)Oc1c(O)c(OC)cc3c1[C@@H](C2)N(C)CC3")
7.4
>>> recorded_value("COc1ccc2cc1Oc1ccc(cc1)C[C@H]1c3c(cc(OC)c4c3Oc3cc5c(cc3O4)CCN(C)[C@@H]5C2)CCN1C")
5.6
>>> recorded_value("COc1ccc2cc1Oc1ccc(cc1)C[C@H]1c3c(cc(OC)c(O)c3Oc3cc4c(cc3OC)CCN[C@@H]4C2)CCN1C")
2
>>> recorded_value("COc1ccc2cc1Oc1ccc(cc1)C[C@H]1c3c(cc(O)c(OC)c3Oc3cc4c(cc3OC)CCN(C)[C@@H]4C2)CCN1C")
3.7
>>> recorded_value("COc1ccc2cc1Oc1ccc(cc1)C[C@H]1c3cc(c(OC)cc3CCN1C)Oc1c(OC)c(OC)cc3c1[C@@H](C2)N(C)CC3")
5.6
>>> recorded_value("COc1ccc2cc1Oc1ccc(cc1)C[C@H]1c3c(cc(OC)c(O)c3Oc3cc4c(cc3OC)CCN(C)[C@@H]4C2)CCN1C")
3.7

* * *

Consider the following compounds and their measured selectivity ratio readings.
# protocol.notes: Selectivity index, ratio of ED50 for human LUC1 cells to ED50 for chloroquine-resistant Plasmodium falciparum W2
# Assay type: toxicity, cell-based
# condition.parameters: read-out: Ratio ED50
endpoint: selectivity ratio

>>> recorded_value("COc1ccc2cc1Oc1ccc(cc1)C[C@H]1c3c(cc(OC)c(OC)c3Oc3cc4c(cc3OC)CCN(C)[C@@H]4C2)CCN1C")
45
>>> recorded_value("COc1ccc2cc1Oc1ccc(cc1)C[C@H]1c3cc(c(OC)cc3CCN1C)Oc1c(OC)c(OC)cc3c1[C@@H](C2)NCC3")
216
>>> recorded_value("COc1ccc2cc1Oc1ccc(cc1)C[C@H]1c3c(cc(OC)c(O)c3Oc3cc4c(cc3OC)CCN(C)[C@@H]4C2)CCN1C")
34
>>> recorded_value("COc1ccc2cc1Oc1ccc(cc1)C[C@H]1c3c(cc(OC)c(O)c3Oc3cc4c(cc3OC)CCN[C@@H]4C2)CCN1C")
40
>>> recorded_value("COc1ccc2cc1Oc1ccc(cc1)C[C@H]1c3cc(c(OC)cc3CCN1C)Oc1c(O)c(OC)cc3c1[C@@H](C2)NCC3")
67
>>> recorded_value("COc1ccc2cc1Oc1ccc(cc1)C[C@H]1c3cc(c(OC)cc3CCN1C)Oc1c(O)c(OC)cc3c1[C@@H](C2)N(C)CC3")
42
>>> recorded_value("COc1ccc2cc1Oc1ccc(cc1)C[C@H]1c3c(cc(OC)c(OC)c3Oc3cc4c(cc3OC)CCN[C@@H]4C2)CCN1C")
94
>>> recorded_value("COc1ccc2cc1Oc1ccc(cc1)C[C@H]1c3cc(c(OC)cc3CCN1C)Oc1c(OC)c(OC)cc3c1[C@@H](C2)N(C)CC3")
183
>>> recorded_value("COc1ccc2cc1Oc1ccc(cc1)C[C@H]1c3c(cc(OC)c4c3Oc3cc5c(cc3O4)CCN=C5C2)CCN1C")
7
>>> recorded_value("COc1ccc2cc1Oc1ccc(cc1)C[C@H]1c3c(cc4c(c3Oc3cc5c(cc3OC)CCN[C@@H]5C2)OCO4)CCN1C")
16
>>> recorded_value("COc1ccc2cc1Oc1ccc(cc1)C[C@H]1c3c(cc4c(c3Oc3cc5c(cc3OC)CCN(C)[C@@H]5C2)OCO4)CCN1C")
25
>>> recorded_value("C=C[C@H]1CN2CC[C@H]1C[C@H]2[C@H](O)c1ccnc2ccc(OC)cc12")
649
>>> recorded_value("COc1ccc2cc1Oc1ccc(cc1)C[C@H]1c3c(cc(OC)c4c3Oc3cc5c(cc3O4)CCN(C)[C@@H]5C2)CCN1C")
30
